# test_context: in water, 303.15 K
readout_name: solubility (mole fraction)
Respond numerically, and do not add a unit to the figure.

Asked: For CCOC(=O)c1c(CSc2ccccc2)n(C)c2cc(Br)c(O)c(CN(C)C)c12.Cl.O , what is its reported solubility (mole fraction)?
Given back: 8.66e-05

---

# test_context: in methanol, 308.15 K
readout_name: solubility (mole fraction)
Respond numerically, and do not add a unit to the figure.

Asked: For CCOC(=O)c1c(CSc2ccccc2)n(C)c2cc(Br)c(O)c(CN(C)C)c12.Cl.O , what is its reported solubility (mole fraction)?
Given back: 0.0541

---

# test_context: in THF, 308.15 K
readout_name: solubility (mole fraction)
Respond numerically, and do not add a unit to the figure.

Asked: For CCOC(=O)c1c(CSc2ccccc2)n(C)c2cc(Br)c(O)c(CN(C)C)c12.Cl.O , what is its reported solubility (mole fraction)?
Given back: 0.000947

---

# test_context: in THF, 323.15 K
readout_name: solubility (mole fraction)
Respond numerically, and do not add a unit to the figure.

Asked: For CCOC(=O)c1c(CSc2ccccc2)n(C)c2cc(Br)c(O)c(CN(C)C)c12.Cl.O , what is its reported solubility (mole fraction)?
Given back: 0.00211

---

# test_context: in isopropanol, 328.15 K
readout_name: solubility (mole fraction)
Respond numerically, and do not add a unit to the figure.

Asked: For CCOC(=O)c1c(CSc2ccccc2)n(C)c2cc(Br)c(O)c(CN(C)C)c12.Cl.O , what is its reported solubility (mole fraction)?
Given back: 0.00749

---

# test_context: in NMP, 298.15 K
readout_name: solubility (mole fraction)
Respond numerically, and do not add a unit to the figure.

Asked: For CCOC(=O)c1c(CSc2ccccc2)n(C)c2cc(Br)c(O)c(CN(C)C)c12.Cl.O , what is its reported solubility (mole fraction)?
Given back: 0.0352

---

# test_context: in ethanol, 323.15 K
readout_name: solubility (mole fraction)

Asked: For CCOC(=O)c1c(CSc2ccccc2)n(C)c2cc(Br)c(O)c(CN(C)C)c12.Cl.O , what is its reported solubility (mole fraction)?
Given back: 0.0294

---

# test_context: in ethyl acetate, 293.15 K
readout_name: solubility (mole fraction)
Respond numerically, and do not add a unit to the figure.

Asked: For CCOC(=O)c1c(CSc2ccccc2)n(C)c2cc(Br)c(O)c(CN(C)C)c12.Cl.O , what is its reported solubility (mole fraction)?
Given back: 7.86e-05

---

# test_context: in isopropanol, 298.15 K
readout_name: solubility (mole fraction)
Respond numerically, and do not add a unit to the figure.

Asked: For CCOC(=O)c1c(CSc2ccccc2)n(C)c2cc(Br)c(O)c(CN(C)C)c12.Cl.O , what is its reported solubility (mole fraction)?
Given back: 0.00161

---

# test_context: in methanol, 298.15 K
readout_name: solubility (mole fraction)

Asked: For CCOC(=O)c1c(CSc2ccccc2)n(C)c2cc(Br)c(O)c(CN(C)C)c12.Cl.O , what is its reported solubility (mole fraction)?
Given back: 0.0442

---

# test_context: in isopropanol, 323.15 K
readout_name: solubility (mole fraction)
Respond numerically, and do not add a unit to the figure.

Asked: For CCOC(=O)c1c(CSc2ccccc2)n(C)c2cc(Br)c(O)c(CN(C)C)c12.Cl.O , what is its reported solubility (mole fraction)?
Given back: 0.00602
